# ASSAY OVERVIEW: qHTS assay to identify small molecule agonists of the estrogen related receptor signaling pathway with the pleiotropic PPARgamma coactivator (PGC) from Tox21 10K library (AID 1224842); note: nearly all actives have a fitted effect of over 15% in size; for activation: % is set by controls: 0 for no effect and ±100 for the full control effect
# TEST PARAMETERS: PGC/ERR reporter cell line, luciferase ONE-Glo, 18 h; series mostly up to 92.4 µM
Records with an inconclusive call do not appear. Activity calls are given as the source filed them. Calls come from the whole dose curve; as a rule, active = well fitted activation curve with a large enough effect in the repeat runs; inconclusive = weak or mixed curves, or effect the other way; inactive = no such curve, though single readings can be large or run the other way.
Please state which outcome applies, choosing from active, inactive

MOLECULE	ASSIGNED LABEL
CCCCC/C=C\C/C=C\CCCCCCCC(=O)NC(C)c1ccccc1 (configuration not stated)	inactive

-- ask Hi team, can someone confirm the assay call for CN1CCC(=C2c3ccccc3Sc3ccccc32)CC1 ?
-- reply inactive

-- ask Tell me the recorded outcome of this test for O=C(OCCCCCCOC(=O)c1ccccc1)c1ccccc1 .
-- reply inactive

-- ask Which outcome was assigned to CN(C)CCCN1c2ccccc2Sc2ccccc21 in this test?
-- reply inactive

-- ask Answer briefly: the call reported for COc1ccc(-c2nc3ccc(C4=NNC(=O)CC4C)cc3[nH]2)cc1 (configuration not stated) in this assay.
-- reply active

-- ask What is the recorded call for this molecule in the test? CCNc1cc(O)ccc1C
-- reply inactive

-- ask Identify the outcome logged in this assay for the molecule shown: COc1ccc(C(=O)N2CCN(CC(=O)N3CCOCC3)CC2)cc1
-- reply inactive

---

# ASSAY OVERVIEW: qHTS assay to identify small molecule antagonists of the thyroid receptor (TR) signaling pathway (AID 743065); note: nearly all actives have a fitted effect of over 55% in size
# TEST PARAMETERS: GH3.TRE-Luc, T3-stimulated luciferase inhibition, 23.5 h; series mostly up to 70.3 µM
Results filed as inconclusive are left out. Active and inactive are the calls of the source. The call rests on the fitted dose curve; in most records, active means well fitted inhibition curve with a large enough effect in the repeat runs; inconclusive means weak or mixed curves; inactive means no such curve, though single readings can be large or run the other way.
Classes to choose from: T = active, F = inactive

Below, 4 compounds whose answers are already recorded.
COMPOUND	ASSIGNED LABEL
C/C=C/C=C/CO	F
Nc1ccc(N)c2c1C(=O)c1ccccc1C2=O	T
CC1OC(=O)C(C)OC1=O (centres undefined)	F
CC(CSC(=O)c1ccccc1)C(=O)N1C[C@@H](Sc2ccccc2)C[C@H]1C(=O)O (some centres undefined)	F

Next, consider the following compound.
-- ask Which result was noted for this compound in the test: O=C(O)c1nc(Cl)c(Cl)c(Cl)c1Cl
-- reply F

---

# ASSAY OVERVIEW: qHTS assay for identifying genotoxic compounds that show differential cytotoxicity against isogenic chicken DT40 cell lines with known DNA damage response pathways - wild type cell line (AID 743012); note: nearly all actives have a fitted effect of over 60% in size
# TEST PARAMETERS: DT40 wild type chicken cells viability, CellTiter-Glo, 40 h; series mostly up to 68.4 µM
Results filed as inconclusive are left out. The source made the active and inactive calls. Calls come from the whole dose curve; as a rule, active = well fitted cell-killing curve with a large enough effect in the repeat runs; inconclusive = weak or mixed curves, or effect the other way; inactive = no such curve, though single readings can be large or run the other way.
Permitted responses: yes (active), no (inactive)

# count of solved cases: 3
MOLECULE	ASSIGNED LABEL
COC(C)(C)CCO	no
C=CC(=O)OCCOCCOC(=O)C=C	yes
CC(C)(CO)[N+](=O)[O-]	no

-- ask Which outcome was entered for the molecule O=C1OC(=O)C2C3C=CC(C3)C12 (centres undefined) in this test?
-- reply no

-- ask // param item: NCc1ccccc1Sc1ccccc1CO ; yields the recorded call
-- reply yes

-- ask Dear colleague, could you share the recorded outcome for CCOc1ccc(N)c([N+](=O)[O-])c1 when you have a moment?
-- reply no

-- ask Per the records of this test, what outcome belongs to Clc1ccc(Cn2c(CN3CCCC3)nc3ccccc32)cc1 ?
-- reply yes

-- ask What was the test verdict on O=C(c1ccc(F)cc1)C1CCN(CCn2c(=S)[nH]c3ccccc3c2=O)CC1 ?
-- reply yes

-- ask Identify the outcome logged in this assay for the molecule shown: CCOc1ccc(N=Nc2ccc(/C=C/c3ccc(N=Nc4ccc(OCC)cc4)cc3S(=O)(=O)O)c(S(=O)(=O)O)c2)cc1
-- reply no

-- ask Could you kindly confirm the outcome this assay logged for Nc1ncn([C@H]2C[C@H](O)[C@@H](CO)O2)c(=O)n1 ?
-- reply yes

-- ask Hi team, can someone confirm the assay call for CCCCCCCC/C=C\CCCCCCCC(=O)OCC ?
-- reply no

---

# ASSAY OVERVIEW: qHTS assay to identify small molecule agonists of the sonic hedgehog signaling (Shh) pathway - cell viability counter screen (AID 1259366); note: nearly all actives have a fitted effect of over 50% in size
# TEST PARAMETERS: NIH/3T3 Gli1-Luc viability, CellTiter-Fluor, 24 h; series mostly up to 92.4 µM
# Description: National Center for Advancing Translational Sciences [NCATS] NIH Chemical Genomics Center [NCGC] U.S. Environmental Protection Agency [EPA] National Institutes of Environmental Health Sciences [NIEHS] National Toxicology Program [NTP] U.S. Food and Drug Administration [FDA] The sonic hedgehog (Shh) pathway is essential for normal embryonic development. Dysregulation of the Shh pathway can cause severe developmental defects in organs. […]
Results filed as inconclusive are left out. Calls of active or inactive are those of the source. Calls follow the shape of the dose curve; as a rule, active = well fitted cell-killing curve with a large enough effect in the repeat runs; inconclusive = weak or mixed curves, or effect the other way; inactive = flat fitted curve, though single readings scatter.
Reply using exactly one outcome from True for active, False for inactive

Please review the following examples before continuing.
MOLECULE	ASSIGNED LABEL
CCOC(=O)C1=C[C@]2(CC)CCCN3CCc4c(n1c1ccccc41)[C@@H]32	False
CCC(C)c1cc(C(C)(C)C)c(O)c(C(C)(C)C)c1 (stereo not given)	False
CCOC(=O)Cc1cccc2ccccc12	False
O=C(O)C1(C(=O)Nc2ccc(Cl)cc2Cl)CC1	False

-- ask Look up the recorded call for COc1ccc(S(=O)(=O)N2C(=O)[C@@](c3ccccc3OC)(N3C[C@H](O)C[C@H]3C(=O)N(C)C)c3cc(Cl)ccc32)c(OC)c1 in this test.
-- reply True

-- ask Look up the recorded call for CCCn1cnc2c1c(=O)n(CCCCC(C)=O)c(=O)n2C in this test.
-- reply False

-- ask Answer briefly: the call reported for C=C1[C@H]2CC[C@@H]3[C@H]2C(C)(C)CCC[C@]13C in this assay.
-- reply False

-- ask Record request — test call for CCCCc1ncc(/C=C(\Cc2cccs2)C(=O)O)n1Cc1ccc(C(=O)O)cc1
-- reply False

-- ask Please let me know the test result on file for CN(C)CCN(Cc1ccsc1)c1ccccn1 .
-- reply False

-- ask What call does the record list for Cc1ccccc1S(=O)(=O)O ?
-- reply False

-- ask Tell me the recorded outcome of this test for COC(=O)c1ccc(I)cc1S(=O)(=O)NC(=O)Nc1nc(C)nc(OC)n1 .
-- reply False

---

# ASSAY OVERVIEW: qHTS assay for identifying genotoxic compounds that show differential cytotoxicity against isogenic chicken DT40 cell lines with known DNA damage response pathways - Rad54/Ku70 mutant cell line (AID 743015); note: nearly all actives have a fitted effect of over 60% in size
# TEST PARAMETERS: DT40 Rad54/Ku70 mutant viability, CellTiter-Glo, 40 h; series mostly up to 66.8 µM
Results filed as inconclusive are left out. Activity calls are given as the source filed them. The call rests on the fitted dose curve; in most records, active means well fitted cell-killing curve with a large enough effect in the repeat runs; inconclusive means weak or mixed curves; inactive means no such curve, though single readings can be large or run the other way.
Write down the outcome that applies. Available outcomes: 1 (yes) for active, 0 (no) for inactive

COMPOUND	ASSIGNED LABEL
Nc1cccc(S(=O)(=O)c2cccc(N)c2)c1	1 (yes)
S=C([S-])NCCNC(=S)[S-].[Mn+2]	1 (yes)

-- ask Could you please tell me the result logged for CCCCCCc1ccc(-c2ccc(C#N)cc2)cc1 in this assay?
-- reply 0 (no)

-- ask Could you check what this test reported for O=C1C(O)=C(O)C(=O)C(O)=C1O ?
-- reply 0 (no)

---

# ASSAY OVERVIEW: qHTS assay to identify small molecule agonists of the estrogen receptor beta (ER-beta) signaling pathway - cell viability counter screen (AID 1259380); note: % is set by controls: 0 for no effect and ±100 for the full control effect; nearly all actives have a fitted effect of over 30% in size
# TEST PARAMETERS: ER-beta-bla HEK293T viability, CellTiter-Glo luminescence, 16 h; series mostly up to 92.4 µM
Results filed as inconclusive are left out. Active and inactive are the calls of the source. Calls follow the shape of the dose curve; as a rule, active = well fitted cell-killing curve with a large enough effect in the repeat runs; inconclusive = weak or mixed curves, or effect the other way; inactive = flat fitted curve, though single readings scatter.
Write down one outcome, taken from active, inactive

Completed entries (count: 5):
MOLECULE	ASSIGNED LABEL
COC(=O)c1ccc(I)cc1S(=O)(=O)NC(=O)Nc1nc(C)nc(OC)n1	inactive
C=CC1CC2C=CC1C2 (configuration not stated)	inactive
COc1ccc(C(=O)c2ccc(OC)cc2O)c(O)c1	inactive
O=C(OCCCCCCOC(=O)c1ccccc1)c1ccccc1	inactive
COc1cc2c(cc1OC)C(C(C(=O)N(CCc1ccc(OC)c(OC)c1OC)CCc1ccc(OC)c(OC)c1OC)c1ccccc1)=NCC2 (configuration not stated)	inactive

Attention now shifts to the item below.
-- ask Per the records of this test, what outcome belongs to CC(C)Cc1ccc(C(C)C(=O)OCc2ccccn2)cc1 (configuration not stated) ?
-- reply inactive

---

# TEST TARGET: Estrogen receptor beta (Homo sapiens) (UniProt Q92731)
# Sequence (Q92731 whole entry, looked up): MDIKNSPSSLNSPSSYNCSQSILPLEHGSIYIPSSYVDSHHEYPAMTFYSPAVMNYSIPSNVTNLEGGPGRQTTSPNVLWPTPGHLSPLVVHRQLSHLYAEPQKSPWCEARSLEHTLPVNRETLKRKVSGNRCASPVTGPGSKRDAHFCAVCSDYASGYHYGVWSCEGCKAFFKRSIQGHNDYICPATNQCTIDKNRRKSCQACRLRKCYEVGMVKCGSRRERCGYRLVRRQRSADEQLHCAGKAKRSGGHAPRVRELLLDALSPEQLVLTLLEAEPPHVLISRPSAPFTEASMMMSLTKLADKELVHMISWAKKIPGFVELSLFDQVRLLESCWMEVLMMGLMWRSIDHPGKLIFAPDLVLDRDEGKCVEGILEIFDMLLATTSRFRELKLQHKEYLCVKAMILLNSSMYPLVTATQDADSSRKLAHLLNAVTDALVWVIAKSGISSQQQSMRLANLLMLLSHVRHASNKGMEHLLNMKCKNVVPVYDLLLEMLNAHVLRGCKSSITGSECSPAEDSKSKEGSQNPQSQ
# ASSAY OVERVIEW: qHTS assay to identify small molecule antagonists of the estrogen receptor beta (ER-beta) signaling pathway (AID 1259378); note: potency is the fitted concentration of half-maximal effect
# TEST PARAMETERS: ER-beta-UAS-bla HEK293T, beta-lactamase FRET ratio, 16 h; series mostly up to 92.4 µM
Results filed as inconclusive are left out. Calls of active or inactive are those of the source. Calls follow the shape of the dose curve; as a rule, active = well fitted inhibition curve with a large enough effect in the signal ratio in the repeat runs (not every such curve was filed as active); inconclusive = weak or mixed curves, or effect the other way; inactive = no such curve, though single readings can be large or run the other way; the % refers to the signal ratio.
ATTRIBUTE MEASURED: Potency

COMPOUND	ENDPOINT VALUE
O[C@@H](COc1cccc2ncccc12)CN1CCN(C2c3ccccc3[C@@H]3[C@H](c4ccccc42)C3(F)F)CC1 (some centres not stated)	16.8 µM (active)
O=P(O)(OCc1ccccc1)OCc1ccccc1	inactive
CC(C)(C)OCC1CO1 (configuration not stated)	inactive
COc1ccc(C(=O)Nc2nc3ccccc3c(NCc3ccccc3)c2C#N)cc1	inactive
CCc1c(C(=O)NN2CCCCC2)nn(-c2ccc(Cl)cc2Cl)c1-c1ccc(Br)cc1	4.33 µM (active)
CC(=O)c1ccc2c(c1)N(CCCN1CCC(CCO)CC1)c1ccccc1S2	15 µM (active)
CN1CCN(C(c2ccccc2)c2ccccc2)CC1	inactive
O=C(Cl)c1cc(C(=O)Cl)cc(C(=O)Cl)c1	inactive
C[C@@H]1C[C@H]2O[C@@]3(O[C@@H]2C(C)(C)O)[C@H](O)[C@@]2(C)[C@@H]4CC[C@H]5C(C)(C)[C@@H](O[C@@H]6OC[C@@H](O)[C@H](O)[C@H]6O)CC[C@@]56C[C@@]46CC[C@]2(C)[C@@H]13	inactive
C=CC(=O)OCCOc1ccccc1	inactive

Value sought for every listed compound: Potency.
1. CC(C)(O)c1ccc(CNC(=O)c2cccnc2Oc2ccc(F)cc2)cc1
2. CCOC(=O)COC(=O)c1cc(Oc2ccc(C(F)(F)F)cc2Cl)ccc1[N+](=O)[O-]

-- reply
inactive
inactive
